System: methionyl-tRNA synthetase (Trypanosoma brucei brucei)
Assay: inhibition of trypanosome methionyl-tRNA synthetase – biochemical, fluorescence polarization, orthogonal assay for T. brucei MetRS inhibitor project (AID 651607);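 further: 0% = vehicle wells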
Conditions: purified T. brucei MetRS, at 11.9 µM, stronger effect = higher value
Hit rate of the full screen: of about 1,400 compounds, about 600 (43%) were called active. So high a share suggests a set chosen from earlier hits. These entries were drawn from the full list.
Quick rule: inhibition of at least 20% means class 1, below that means class 0.

Clc1ccccc1SCc1nc2ccccc2[nH]1 = class 0
NC1=NC(=O)S/C1=C\c1ccc(O)cc1 = class 0
OC(c1cc(Cl)cc(Cl)c1)c1ncc(-c2ccccc2C(F)(F)F)[nH]1 (stereo not given) = class 1
Cc1ccc(-c2cnc(C(O)c3cc(Cl)cc(Cl)c3)[nH]2)cc1 (stereo not given) = class 1

Hello, I need to know if CCN(CC)C(=O)C(=O)c1cn(CC(=O)NCc2ccc3c(c2)OCO3)c2ccccc12 has measured inhibition not below 20%. Thanks!
class 1

Hello, I need to know if O=C(NNC(=O)c1ccc(-n2cncn2)c([N+](=O)[O-])c1)c1ccccc1 has measured inhibition not below 20%. Thanks!
class 1

Hello, I need to know if COC(=O)CN1C(=S)N(c2ccccc2)C(=O)C1CC(=O)Nc1ccc(Cl)cc1 (stereo not given) has measured inhibition not below 20%. Thanks!
class 0

Hello, I need to know if CCO[C@@H]1OC(C(=O)NCc2nc3ccccc3[nH]2)=C[C@H](C2CCCCC2)[C@H]1CCCO has measured inhibition not below 20%. Thanks!
class 0

Hello, I need to know if COc1ccc(NC(=O)C(NC(C)=O)C(=O)NCc2ccccc2Cl)cc1 (stereo not given) has measured inhibition not below 20%. Thanks!
class 0

Hello, I need to know if COc1ccccc1-n1c(SCC(=O)Nc2ccc(Cl)cc2)nc(O)c(Cc2ccccc2)c1=O has measured inhibition not below 20%. Thanks!
class 1

---

Test system: methionyl-tRNA synthetase (Trypanosoma brucei brucei)
Experiment: inhibition of trypanosome methionyl-tRNA synthetase – biochemical, fluorescence polarization, orthogonal assay for T. brucei MetRS inhibitor project (AID 651607);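 further: 0% = vehicle wells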
Conditions: purified T. brucei MetRS, at 11.9 µM
Out of some 1,400 compounds screened, about 600 (43%) were called active. Rule as the data show it: active = inhibition above about 17%; inactive = the rest. The set was probably picked from earlier hits. A selection follows.
Your response should consist of one outcome taken from 1 = active, -1 = inactive

c1ccc2cc3[nH]c(CN4CCCCC4)nc3cc2c1 = -1
O=C(O)CCn1c(O)c(C=C2N=c3ccccc3=N2)sc1=S = 1

How was O=C(Nc1ccc(S(=O)(=O)Nc2ncccn2)cc1)c1cncc(Br)c1 classified in this test?
-1

How was Cc1ccc(S(=O)(=O)c2c[nH]c3ccc(Cl)cc3c2=O)cc1 classified in this test?
1

How was CC(=N\NC(=O)c1cc(Br)ccc1O)/C(=N/O)C(=O)Nc1ccccc1 classified in this test?
-1

How was Cc1c(CN2CCC(CO)(CCOc3ccccc3)CC2)[nH]c2ccc(Cl)cc12 classified in this test?
1

How was CN(C(=O)CSc1nnc(-c2c[nH]c3ccccc23)o1)C1CCS(=O)(=O)C1 (stereo not given) classified in this test?
-1

How was O=C(/C(=N\O)n1cncn1)c1ccc(Br)cc1Br classified in this test?
-1

How was c1ccc(CN=C2Nc3ccccc3CS2)nc1 classified in this test?
-1

How was Cc1ccc(NC(=O)C(C)c2cccc(C(=O)c3ccccc3)c2)cc1 (stereo not given) classified in this test?
1

How was O=C(Nc1cccc([N+](=O)[O-])c1)N1CCc2ccccc2C1 classified in this test?
-1

How was CCN1CCCC1CNc1ncnc2c1[nH]c1ccc(F)cc12 (stereo not given) classified in this test?
1

How was O=C(Cn1c(NCCO)nc2ccccc21)c1ccc(Cl)cc1Cl classified in this test?
-1

How was CN(C(=O)CSc1nnc(Nc2ccccc2)s1)C1CCS(=O)(=O)C1 (stereo not given) classified in this test?
-1

How was CC(C)(C)c1ccc(/C=C2\SC(=O)N=C2N)cc1 classified in this test?
1

How was O=C1CCCN1CCCNc1ncnc2c1[nH]c1ccccc12 classified in this test?
1

How was O=C(CSc1nc2ccccc2[nH]1)N/N=C/C=C\c1ccccc1[N+](=O)[O-] classified in this test?
-1

How was Cc1ccc(S(=O)(=O)N(C)C)cc1NC(=O)c1ccc(-n2cncn2)c([N+](=O)[O-])c1 classified in this test?
1

How was O=S(=O)(c1ccc(Br)cc1)N1CCC(c2nc3ccccc3[nH]2)CC1 classified in this test?
-1

How was Cc1ccc(CNC(=O)CSc2nnc3c(n2)[nH]c2ccc(F)cc23)cc1 classified in this test?
1

How was CCCCCCCC[n+]1cccc(C(=O)N2c3c(nc(N)[nH]c3=O)NC(C)C2C)c1 (stereo not given) classified in this test?
-1

How was O=[N+]([O-])c1ccc(N2CCN(c3ccc(O)cc3)CC2)c(Cl)c1 classified in this test?
-1
